- System: OVCAR-3 ovarian
- experimentSummary: NCI-60 one-dose screen, 48 h (100 = growth as untreated, 0 = no growth, -100 = all killed)
- statedConditions: 10 µM
This is part of a sample that, as a whole, favours compounds with a hit. Of some 83,000 tested, about 20% had one in any assay.
assayMetric: growth (%)
Give bare numbers, in %.

Example entries and their recorded answers appear below.
smi: Cc1ccc2nc(COc3ccc(C(=O)NNC(=S)NCCc4ccccc4)cc3)[nH]c2c1
tgt: OVCAR-3 ovarian
assayMetric: growth
measuredResult: 105
--
smi: N#Cc1c(NC(=O)c2cccc(C(F)(F)F)c2)sc2c1CCC(O)=C2
tgt: OVCAR-3 ovarian
assayMetric: growth
measuredResult: 36.8
--
smi: Cc1cc2c(c(O)c1Br)-c1ncoc1C(=O)[C@]1(C)CC[C@H](C(C)C)[C@H]21
tgt: OVCAR-3 ovarian
assayMetric: growth
measuredResult: 18.2
--
smi: C/C(=N\NC(N)=S)c1ccc(Nc2nc(SC(C)C)nc(-c3ccccc3)c2C#N)cc1
tgt: OVCAR-3 ovarian
assayMetric: growth
measuredResult: 67.3

Kindly give each listed record's growth.
1. CS(=O)(=O)Nc1ccc(-c2ccc3c(c2)ncn3-c2ccc(NC(=O)Nc3ccc(Cl)c(C(F)(F)F)c3)cc2)cc1
2. CN1CCN(Cc2ccc(NC(=O)c3cncc(C#Cc4cnc5ccc(N[C@H]6CCOC6)nn45)c3)cc2C(F)(F)F)CC1
3. Nc1nc(-c2ccccc2)cs1
4. O=C(NO)c1ccc(CNC(=O)[C@H]2Cc3c([nH]c4ccccc34)[C@H](c3ccc(Cl)cc3)N2)cc1
5. CN(CCO)c1oc(-c2ccccc2)nc1[P+](c1ccccc1)(c1ccccc1)c1ccccc1

### Response
-54.3
-93.7
44.6
7.44
-0.969
